Target: Androgen receptor (Homo sapiens, UniProt P10275)
Sequence (P10275 whole entry): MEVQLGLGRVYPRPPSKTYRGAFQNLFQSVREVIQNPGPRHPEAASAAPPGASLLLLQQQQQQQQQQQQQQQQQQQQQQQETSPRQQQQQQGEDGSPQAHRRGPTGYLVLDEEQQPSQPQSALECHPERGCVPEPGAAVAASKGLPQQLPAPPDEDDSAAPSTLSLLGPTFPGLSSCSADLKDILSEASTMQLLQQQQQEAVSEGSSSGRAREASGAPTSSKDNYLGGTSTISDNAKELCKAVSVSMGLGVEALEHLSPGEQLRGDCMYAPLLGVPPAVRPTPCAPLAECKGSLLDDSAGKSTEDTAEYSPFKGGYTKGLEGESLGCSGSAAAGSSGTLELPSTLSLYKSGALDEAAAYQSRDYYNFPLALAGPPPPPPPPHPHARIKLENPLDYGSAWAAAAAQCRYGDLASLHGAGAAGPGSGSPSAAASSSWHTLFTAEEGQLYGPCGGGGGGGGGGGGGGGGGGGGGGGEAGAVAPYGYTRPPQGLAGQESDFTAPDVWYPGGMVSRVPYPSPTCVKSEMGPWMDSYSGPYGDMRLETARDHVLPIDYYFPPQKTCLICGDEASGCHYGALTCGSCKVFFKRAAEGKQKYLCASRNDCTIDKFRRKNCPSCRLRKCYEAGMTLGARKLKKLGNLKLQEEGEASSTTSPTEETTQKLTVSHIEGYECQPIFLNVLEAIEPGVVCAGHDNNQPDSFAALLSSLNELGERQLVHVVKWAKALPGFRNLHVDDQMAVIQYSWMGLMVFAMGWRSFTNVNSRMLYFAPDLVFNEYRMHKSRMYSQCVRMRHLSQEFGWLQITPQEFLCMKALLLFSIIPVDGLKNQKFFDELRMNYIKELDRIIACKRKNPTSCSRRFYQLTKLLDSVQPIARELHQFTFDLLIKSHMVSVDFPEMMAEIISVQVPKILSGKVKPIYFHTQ
pIC50: −log10 of the molar value.
Recorded pIC50, one value per entry.
resultType: pIC50

>>> df
                                   compound                             assayedtarget  resulttype  resultnumber
0  CC1(C)Cc2cc3c(C(F)(F)F)cc(=O)[nH]c3cc2NC1(C)C  Androgen receptor (Homo sapiens, UniProt P10275)       pIC50          7.08
1  CC1c2cc3c(C(F)(F)F)cc(O)nc3cc2NC(C)(C)C1(C)C (centres undefined)  Androgen receptor (Homo sapiens, UniProt P10275)       pIC50          7.24
2   CCC1(CC)CCc2cc3c(C(F)(F)F)cc(O)nc3cc2N1  Androgen receptor (Homo sapiens, UniProt P10275)       pIC50          7.57
3  Oc1cc(C(F)(F)F)c2cc3c(cc2n1)NC1(CCCCC1)CC3  Androgen receptor (Homo sapiens, UniProt P10275)       pIC50          7.46
